- Tested on: HCT-116
- assay_overview: Cytotoxicity against human HCT-116 cells assessed as inhibition of cell proliferation at 25 uM incubated for 72 hrs by MTT assay relative to control
- Format: functional
- Parameters: scale not given: the % may be the effect or the level left
I'd be grateful if you could share measured Activity for these entries.
Kindly report the value followed by its unit.

Under HCT-116: Activity value of CC(=O)OC[C@H]1O[C@H](OC[C@@H](Cn2cc(CN(c3nc(-c4cccc([N+](=O)[O-])c4)no3)C3CCCCC3)nn2)OC(C)=O)C=C[C@@H]1OC(C)=O ?
27.7%

Similarly, CC(=O)OC[C@H]1O[C@H](OC[C@@H](Cn2cc(CN(c3nc(-c4ccc(F)cc4)no3)C3CCCCC3)nn2)OC(C)=O)C=C[C@@H]1OC(C)=O ?
44.9%

Similarly, C#Cc1ccc(-c2noc(NC3CCCCC3)n2)cc1 ?
60.7%

Similarly, CC(=O)OC[C@H]1O[C@H](OC[C@@H](Cn2cc(CN(c3nc(-c4ccc([N+](=O)[O-])cc4)no3)C3CCCCC3)nn2)OC(C)=O)C=C[C@@H]1OC(C)=O ?
39.1%

====

- assay_overview: Cytotoxicity against mouse RAW264.7 cells assessed as reduction in cell viability incubated for 48 hrs by MTT assay
- Type: cell-based
measured_endpoint: CC50 at 48 h (µg/mL)
The reply should be a number in µg/mL, with the unit left off.

Report CC50 at 48 h for C#Cc1ccc(-c2noc(NC3CCCCC3)n2)cc1 please.
19.8

Similarly, CC(=O)OC[C@H]1O[C@H](OC[C@@H](Cn2cc(CN(c3nc(-c4ccc(-c5cn(C[C@H](CO[C@@H]6C=C[C@H](OC(C)=O)[C@@H](COC(C)=O)O6)OC(C)=O)nn5)cc4)no3)C3CCCCC3)nn2)OC(C)=O)C=C[C@@H]1OC(C)=O ?
117

Similarly, CCCCCCCCCCc1cn(C[C@@H](CO[C@@H]2C=C[C@H](OC(C)=O)[C@@H](COC(C)=O)O2)OC(C)=O)nn1 ?
30.4

Similarly, C#CCN(c1nc(-c2cccc([N+](=O)[O-])c2)no1)C1CCCCC1 ?
34.2

Similarly, C#CCN(c1nc(-c2ccc(C(F)(F)F)cc2)no1)C1CCCCC1 ?
38.3

Similarly, CC(=O)OC[C@H]1O[C@H](OC[C@H](Cn2cc(COc3ccc(-c4noc(NC5CCCCC5)n4)cc3)nn2)OC(C)=O)C=C[C@@H]1OC(C)=O ?
33.3

Similarly, C#CCN(c1nc(-c2cccc(Br)c2)no1)C1CCCCC1 ?
31.8

Similarly, C#CCN(c1nc(-c2ccc(Br)cc2)no1)C1CCCCC1 ?
15.7

====

- assay_overview: Cytotoxicity against mouse RAW264.7 cells assessed as reduction in cell viability incubated for 48 hrs by MTT assay
- Format: cell-based
I'd be grateful if you could share measured CC50 at 48 h for these entries.
The reply should be a number in µg/mL, with the unit left off.

Report CC50 at 48 h for CC(=O)OC[C@H]1O[C@H](OC[C@H](Cn2cc(COc3ccc(-c4noc(C)n4)cc3)nn2)OC(C)=O)C=C[C@@H]1OC(C)=O please.
112

Similarly, C#CCN(c1nc(-c2ccc(C#C)cc2)no1)C1CCCCC1 ?
13.1

Similarly, CC(=O)OC[C@H]1O[C@H](OC[C@@H](Cn2cc(CN(c3nc(-c4ccc(C)cc4)no3)C3CCCCC3)nn2)OC(C)=O)C=C[C@@H]1OC(C)=O ?
45.3

Similarly, CO[C@H]1/C=C/O[C@@]2(C)Oc3c(C)c(O)c4c(O)c(c(/C=N/N5CCN(C)CC5)c(O)c4c3C2=O)NC(=O)/C(C)=C\C=C\[C@H](C)[C@H](O)[C@@H](C)[C@@H](O)[C@@H](C)[C@H](OC(C)=O)[C@@H]1C ?
80.4

Similarly, COc1ccc(-c2noc(N(Cc3cn(C[C@H](CO[C@@H]4C=C[C@H](OC(C)=O)[C@@H](COC(C)=O)O4)OC(C)=O)nn3)C3CCCCC3)n2)cc1 ?
86.3

Similarly, C#CCN(c1nc(-c2ccc(OC)cc2)no1)C1CCCCC1 ?
28

Similarly, CC(=O)OC[C@H]1O[C@H](OC[C@@H](Cn2cc(CN(c3nc(-c4ccc(C(F)(F)F)cc4)no3)C3CCCCC3)nn2)OC(C)=O)C=C[C@@H]1OC(C)=O ?
64.1

Similarly, C#CCN(c1nc(-c2ccc(Cl)cc2)no1)C1CCCCC1 ?
15.1

Cited source for all entries: ChEMBL document CHEMBL4842319
